# system-under-test: human 17βHSD1 (Homo sapiens)
# Sequence (P14061 1-328): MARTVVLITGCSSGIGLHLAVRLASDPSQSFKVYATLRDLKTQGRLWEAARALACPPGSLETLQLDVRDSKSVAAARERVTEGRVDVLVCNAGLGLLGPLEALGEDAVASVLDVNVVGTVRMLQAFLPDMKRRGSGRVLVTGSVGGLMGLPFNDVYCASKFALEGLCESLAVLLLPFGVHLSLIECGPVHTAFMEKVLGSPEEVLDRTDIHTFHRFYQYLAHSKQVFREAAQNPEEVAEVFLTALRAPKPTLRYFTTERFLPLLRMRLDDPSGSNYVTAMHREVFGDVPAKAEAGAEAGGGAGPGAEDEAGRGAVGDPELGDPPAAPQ
# assay-explanation: 17βHSD inhibition in CHO cells transfected with human 17βHSD1, E1 in supernatant
# Format: cell-based
# Set-up: expressed in transfected cells
# condition: 8 hr., 10 μmol·l^−1
assay-endpoint: E1 in supernatant, CHO

In [3]: df
Out[3]:
                                smiles_repr          assay_endpoint  reported_value
0  C[C@]12CC[C@@H]3c4ccc(O)cc4CC[C@H]3[C@@H]1[C@H](CCc1ccc(Cl)cc1)CC2=O  E1 in supernatant, CHO      4137 pg/mL
1  C[C@]12CC[C@@H]3c4ccc(O)cc4CC[C@H]3[C@@H]1[C@H](CCc1ccc(O)cc1)CC2=O  E1 in supernatant, CHO      3179 pg/mL
2  COc1ccc(CC[C@@H]2CC(=O)[C@@]3(C)CC[C@@H]4c5ccc(O)cc5CC[C@H]4[C@H]23)cc1  E1 in supernatant, CHO      1171 pg/mL
3  COC(=O)c1ccc(CC[C@@H]2CC(=O)[C@@]3(C)CC[C@@H]4c5ccc(O)cc5CC[C@H]4[C@H]23)cc1  E1 in supernatant, CHO      2101 pg/mL
4  Cc1ccc(CC[C@@H]2CC(=O)[C@@]3(C)CC[C@@H]4c5ccc(O)cc5CC[C@H]4[C@H]23)cc1  E1 in supernatant, CHO       750 pg/mL
5  C[C@]12CC[C@@H]3c4ccc(O)cc4CC[C@H]3[C@@H]1[C@H](CCc1ccc(F)cc1)CC2=O  E1 in supernatant, CHO      3194 pg/mL

---

# system-under-test: human 17βHSD1 (Homo sapiens)
# assay-explanation: 17βHSD inhibition in MCF-7 cells transfected with human 17βHSD1, E1 in supernatant
# Type: cell-based
# Set-up: expressed in transfected cells; host or cells: MCF-7
# condition: 24 hr., 10 μmol·l^−1
This section presents compounds with their documented E1 in supernatant, MCF-7 values.
assay-endpoint: E1 in supernatant, MCF-7 (pg/mL)

                                smiles_repr             system_under_test  reported_value
0  Cc1ccc(CC[C@@H]2CC(=O)[C@@]3(C)CC[C@@H]4c5ccc(O)cc5CC[C@H]4[C@H]23)cc1  human 17βHSD1 (Homo sapiens)             948
1  COC(=O)c1ccc(CC[C@@H]2CC(=O)[C@@]3(C)CC[C@@H]4c5ccc(O)cc5CC[C@H]4[C@H]23)cc1  human 17βHSD1 (Homo sapiens)            1839
2  C[C@]12CC[C@@H]3c4ccc(O)cc4CC[C@H]3[C@@H]1[C@H](CCc1ccc(Cl)cc1)CC2=O  human 17βHSD1 (Homo sapiens)            3323
3  C[C@]12CC[C@@H]3c4ccc(O)cc4CC[C@H]3[C@@H]1[C@H](CCc1ccc(O)cc1)CC2=O  human 17βHSD1 (Homo sapiens)            2626
4  COc1ccc(CC[C@@H]2CC(=O)[C@@]3(C)CC[C@@H]4c5ccc(O)cc5CC[C@H]4[C@H]23)cc1  human 17βHSD1 (Homo sapiens)            1182
5  C[C@]12CC[C@@H]3c4ccc(O)cc4CC[C@H]3[C@@H]1[C@H](CCc1ccc(F)cc1)CC2=O  human 17βHSD1 (Homo sapiens)            2236

---

# system-under-test: estrogen receptor α (ERα) (Homo sapiens, UniProt P03372)
# Construct: expressed in transfected cells
# Sequence (P03372 1-595): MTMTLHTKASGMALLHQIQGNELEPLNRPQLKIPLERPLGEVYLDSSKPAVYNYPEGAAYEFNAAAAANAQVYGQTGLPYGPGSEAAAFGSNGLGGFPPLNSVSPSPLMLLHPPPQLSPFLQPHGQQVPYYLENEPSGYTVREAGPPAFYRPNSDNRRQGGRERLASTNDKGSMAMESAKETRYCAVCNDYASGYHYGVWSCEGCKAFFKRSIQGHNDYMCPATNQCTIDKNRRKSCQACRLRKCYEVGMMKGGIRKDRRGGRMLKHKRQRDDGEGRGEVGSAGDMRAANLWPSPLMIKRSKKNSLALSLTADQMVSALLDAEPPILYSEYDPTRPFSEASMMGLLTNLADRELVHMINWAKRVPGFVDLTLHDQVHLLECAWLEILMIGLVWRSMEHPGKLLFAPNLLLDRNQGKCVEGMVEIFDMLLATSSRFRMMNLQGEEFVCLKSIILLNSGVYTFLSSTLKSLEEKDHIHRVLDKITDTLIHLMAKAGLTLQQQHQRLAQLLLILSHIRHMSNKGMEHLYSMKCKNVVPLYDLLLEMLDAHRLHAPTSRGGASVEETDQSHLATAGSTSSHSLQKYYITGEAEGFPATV
# assay-explanation: ERα luciferase reporter assay in U2OS cells
# Format: cell-based
# condition: testing range 10 μmol·l^−1 to 1 nmol·l^−1
assay-endpoint: ER antagonism in words

>>> print(df.to_string())
                                   compound          assay_endpoint  reported_value
0  COC(=O)c1ccc(CC[C@@H]2CC(=O)[C@@]3(C)CC[C@@H]4c5ccc(O)cc5CC[C@H]4[C@H]23)cc1 [Compound 7]  ER antagonism in words   ER antagonist
1  C[C@]12CC[C@@H]3c4ccc(O)cc4CC[C@H]3[C@@H]1[C@H](CCc1ccccc1)CC2=O [Compound 3]  ER antagonism in words   ER antagonist
2  C[C@]12CC[C@@H]3c4ccc(O)cc4CC[C@H]3[C@@H]1[C@H](CCc1ccc(C(F)(F)F)cc1)CC2=O [Compound 4]  ER antagonism in words   ER antagonist

---

This section presents molecules with their documented melting point values.
assay-endpoint: melting point (°C)

>>> print(df.to_string())
                                   molecule  reported_value
0  Cc1ccc(CC[C@@H]2CC(=O)[C@@]3(C)CC[C@@H]4c5ccc(O)cc5CC[C@H]4[C@H]23)cc1 [Compound 15]             159
1  COC(=O)c1ccc(CC[C@@H]2CC(=O)[C@@]3(C)CC[C@@H]4c5ccc(O)cc5CC[C@H]4[C@H]23)cc1 [Compound 7]             139
2  C[C@]12CC[C@@H]3c4ccc(O)cc4CC[C@H]3[C@@H]1[C@H](CCc1cc(F)c(F)c(F)c1)CC2=O [Compound 16]             182
3  C[C@]12CC[C@@H]3c4ccc(O)cc4CC[C@H]3[C@@H]1[C@H](CCc1ccc(F)cc1)CC2=O [Compound 5]             164
4  C[C@]12CC[C@@H]3c4ccc(O)cc4CC[C@H]3[C@@H]1[C@H](CCc1ccc3ccccc3c1)CC2=O [Compound 8]             201

---

# system-under-test: human 17βHSD type 1 (Homo sapiens)
# Construct: made in house; expressing system suspended in buffer, not purified
# Sequence (P14061 1-328): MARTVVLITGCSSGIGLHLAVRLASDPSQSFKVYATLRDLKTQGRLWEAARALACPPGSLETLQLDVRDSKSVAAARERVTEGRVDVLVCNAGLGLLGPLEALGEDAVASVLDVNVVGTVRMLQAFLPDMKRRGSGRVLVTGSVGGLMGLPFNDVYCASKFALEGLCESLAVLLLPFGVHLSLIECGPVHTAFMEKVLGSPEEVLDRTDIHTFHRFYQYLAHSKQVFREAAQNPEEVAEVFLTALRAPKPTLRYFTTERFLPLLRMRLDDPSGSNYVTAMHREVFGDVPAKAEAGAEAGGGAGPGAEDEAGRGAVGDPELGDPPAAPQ
# assay-explanation: Inhibition of recombinant 17βHSD type 1, tritium-labeled substrate conversion
# Format: biochemical
# condition: 0.1 μmol · l^−1 test substance; read-out: % of inhibition of human 17βHSD1
This section presents compounds with their documented inhibition at 0.1 µM values.
assay-endpoint: inhibition at 0.1 µM (%)

>>> df
                                smiles_repr  reported_value
0  C[C@]12CC[C@@H]3c4ccc(O)cc4CC[C@H]3[C@@H]1[C@H](CCc1ccc(C(F)(F)F)cc1)CC2=O              68
1  COC(=O)c1ccc(CC[C@@H]2CC(=O)[C@@]3(C)CC[C@@H]4c5ccc(O)cc5CC[C@H]4[C@H]23)cc1              84
2  COc1cccc(CC[C@@H]2CC(=O)[C@@]3(C)CC[C@@H]4c5ccc(O)cc5CC[C@H]4[C@H]23)c1              72

Data origin: patent US10759826B2
